- measurement_target: corticotropin releasing factor 1 receptor
- protocol_text: cell-based or functional assay
Ends that are not written are not given here.
attribute_measured: CRF1R Emax % (%)
Numbers only, in %.

Please supply CRF1R Emax % for each of the following items, keeping them in order.
1. PSLSIDLPLILLRTLLELEKTQSQRERAEQNARIFARV-NH2 [SEQ ID NO 332]
2. ZGPPISIDLPIALLRKMIEIEKQEKEKQQAANNRLLLDTI (not fully specified; C-terminal amide) [SEQ ID NO 306]

Result:
61.3
97.7

Please supply CRF1R Emax % for each of the following items, keeping them in order.
1. DNPSLSIDVPLYLLRTLLELEKTQSQRERAEQNARIFARV-NH2 [SEQ ID NO 387]
2. ZGPPISIDLPLQLLRKVIEIEKQEKEKQQAANNALLLATI (C-terminal amide) [SEQ ID NO 349]

Result:
1. 50.1
2. 44.2
